System: Shigella flexnerii
Listed here are molecules together with their documented MIC.

# MOLECULE, MIC
data = [
    ("CCn1cc(C(=O)O)c(=O)c2ccc(-n3cccc3)nc21", "16 µg/mL"),
    ("CCn1cc(C(=O)O)c(=O)c2cc(F)c(-n3cccc3)nc21", "2 µg/mL"),
    ("CCn1cc(C(=O)O)c(=O)c2cc(F)c(-n3cccc3)cc21", "2 µg/mL"),
    ("CCn1cc(C(=O)O)c(=O)c2ccc(-n3cccc3)cc21", "8 µg/mL"),
    ("CCn1cc(C(=O)O)c(=O)c2cnc(N3CCNCC3)nc21 [Pipemidic acid, reference compound]", "4 µg/mL"),
]
